pIC50 for Tissue-type plasminogen activator (Homo sapiens, UniProt P00750), merged from several publications.
pIC50: −log10 of the molar value.
measurement_label: pIC50

CC(C)c1cc(CCN2CCc3cccc(C(=O)O)c32)cc(-c2ccc3c(c2)[C@H](N)CO3)c1
6.18
N=C(N)NCCC[C@@H](NC(=O)CN1CCN(S(=O)(=O)c2ccc(Cl)cc2)CC1=O)C(=O)c1nccs1
5.73

[A] CC(C)c1cc(-c2ccc3c(c2)[C@H](N)CO3)cc(C(O)CN2CCc3cccc(C(=O)O)c32)c1 (mixture of isomers)
[B] CN[C@H](Cc1ccccc1)C(=O)N1CCC[C@H]1C(=O)N[C@H](C=O)CCCN=C(N)N
query: For this pair, A and B , which shows a numerically higher pIC50? Pick one and reply with its label.
result: A
(A: 6.31, B: 4.68)
